- Method: Toxicity liver stage against HepG2, at 10uM
- Assay type: cell-based
- Design: test concentration 10 uM, cell line HepG2-A16-CD81EGFP
- Experimental context: human, HepG2-A16-CD81EGFP cells; read-out: INHIBITION
# cytotoxicity at 10 µM values compiled below
Provide the reading as a plain figure in %.

Fill in the blank: the reported cytotoxicity at 10 µM of `O=C(CNc1cccc2c1CCCC2)Nc1ccccc1Br` is ____.
11.4

Please look up its cytotoxicity at 10 µM: Cc1ccc(NC(=O)c2ccc(CC3CC(=O)NC3=O)cc2)cc1O (stereo unspecified)
4.99

====

- Method: Toxicity liver stage against HepG2, at 10uM
- Type: cell-based
- Parameters: test concentration 10 uM, cell line HepG2-A16-CD81EGFP
- Experimental context: human, HepG2-A16-CD81EGFP cells; read-out: INHIBITION
Recorded endpoint: cytotoxicity at 10 µM (%)
Use % as the unit, but write only the number.

[
  {
    "Compound": "COc1c(C(=O)N2CCOCC2)cnc2c1c(C)nn2C",
    "Value observed": 1.64
  },
  {
    "Compound": "CN(Cc1ccccc1F)C(=O)c1ccoc1",
    "Value observed": 11.3
  },
  {
    "Compound": "Cc1ccc(-c2ccccc2CC2CNCCNC2=O)c(C)c1 (centres undefined)",
    "Value observed": -1.18
  },
  {
    "Compound": "CNC(=O)c1sccc1S(=O)(=O)Nc1ccc(C)cc1",
    "Value observed": 11.4
  },
  {
    "Compound": "CCc1nc(CN2CCCC2c2c(C)nn(C)c2OC)no1 (centres undefined)",
    "Value observed": -6.07
  }
]

# input compound: COCCN1CCC(CNC(=O)C2(c3cccc(Cl)c3)CC2)C1 (centres undefined) ; wanted: its cytotoxicity at 10 µM
-6.63

Record request: cytotoxicity at 10 µM value, item `C[C@H]1CN(c2ccccn2)C[C@@]12CCN(c1cccnc1)C2=O`
-2.62

Please give the measured cytotoxicity at 10 µM for this compound: CCC(C#N)NC(=O)COC1CCCCC1 (centres undefined)
5.48

Bench note: what cytotoxicity at 10 µM did `CN(C)c1nccc(N2CCO[C@H]3CN(Cc4ccco4)C[C@H]32)n1` show?
-122

Which cytotoxicity at 10 µM value is on record for `Cc1ccnn1CC(=O)N1CCCN(C2Cc3ccccc3C2)CC1` ?
-120

Would you kindly share the measured cytotoxicity at 10 µM for `COc1ccccc1N1CCN(C(=O)c2ccnc(N(C)C)c2)CC1` ?
84.2

# input compound: NC(=O)CCC1CCCN(c2ccc3c(Cl)ccnc3c2F)C1 (centres undefined) ; wanted: its cytotoxicity at 10 µM
29.6

Please report the recorded cytotoxicity at 10 µM for CC(C)NC(=O)C1CN(C(=O)c2ccco2)CC12CCOCC2 (centres undefined) .
-0.516

Given the compound Cc1ccc(CC(=O)N(C)CC2(O)CCCN(c3ccccn3)C2)s1 (centres undefined) , what is its reported cytotoxicity at 10 µM?
-14.1

// query cytotoxicity at 10 µM value for entry `Cc1cc(NCCO)nc(N2CCC(Cc3ccccc3)CC2)c1C#N`
4.35

====

Measured cytotoxicity at 10 µM values are reported for all entries that follow.
- Method: Toxicity liver stage against HepG2, at 10uM
- Type: cell-based
- Set-up: test concentration 10 uM, cell line HepG2-A16-CD81EGFP
- Experimental context: human, HepG2-A16-CD81EGFP cells; read-out: INHIBITION
Answer with a number only, understood to be in %.

[
  {
    "Molecule": "c1cnn(CCNCc2cnc(N3CCCC3)nc2)c1",
    "Value observed": -9.46
  }
]

Which cytotoxicity at 10 µM is listed for `COCc1nc(CN2CC(=O)N(C)c3ccccc3C2=O)no1` ?
-6.03

# get_value(readout='cytotoxicity at 10 µM', item= `COCc1c(C(=O)NC2CCCC2)nnn1-c1ccc(C)cc1` )
5.97

GET /values?readout=cytotoxicity at 10 µM&item= `CC(C)Oc1ncnc2c1CCN(Cc1cccs1)CC2`
-0.935
